system: HL-60(TB) leukemia; experiment: NCI tumour cell line growth inhibition, 48 h
OBSERVED PROPERTY: TGI (µM)
One number for each entry, in µM.

The examples below pair each entry with its known result.
- SMILES REPR: "NC1=C(NC(=O)Cc2ccc(F)cc2)C(=O)c2ccccc2C1=O"
  RECORDED MEASUREMENT: 98.6
- SMILES REPR: "O=[N+]([O-])c1cc(C(F)(F)F)cc([N+](=O)[O-])c1CCl"
  RECORDED MEASUREMENT: 3.21
- SMILES REPR: "O=C(CN1CCCCC1)Nc1ccc2sc3ccccc3c(=O)c2n1"
  RECORDED MEASUREMENT: 68.9
- SMILES REPR: "Cc1cc2c(cc1-c1cc3c(cc1C)C(C(C)C)=C(O)C(=O)/C3=C\\Nc1c3ccccc3nc3ccccc13)/C(=C/Nc1c3ccccc3nc3ccccc13)C(=O)C(O)=C2C(C)C"
  RECORDED MEASUREMENT: 11.2

Could you now consider this next compound?
**Query** Need TGI, item "O=C1/C(=C/c2cccc(F)c2)CCCc2ccccc21"
**Result** 62.9

----------
system: SW-620 colon; assay: NCI tumour cell line growth inhibition, 48 h
Field: TGI. Provide a value for each of the compounds that follow.

Reference set (4 entries):
- COMPOUND: "COc1ccc2nc3cccc([N+](=O)[O-])c3c(NCCCCCC(=O)O)c2c1"
  RECORDED MEASUREMENT: "0.268 µM"
- COMPOUND: "CN1C(=Nc2ccccc2)SC1=Nc1ccccc1"
  RECORDED MEASUREMENT: "> 100 µM"
- COMPOUND: "CCCCOC(=O)C1C2CCC(O2)C1C(=O)OCCCC (stereo not given)"
  RECORDED MEASUREMENT: "> 22.9 µM"
- COMPOUND: "O=C([CH-]C(=O)c1ccccc1)c1ccccc1.O=C([CH-]C(=O)c1ccccc1)c1ccccc1.[La+3].[OH-].[OH3+]"
  RECORDED MEASUREMENT: "> 100 µM"

**Query** Record request: TGI value, item "CCOc1ccc(NC(=O)C(=O)CC(=O)c2sc(NNC(C)=O)nc2C)cc1"
**Result** > 100 µM

----------
tested on: RXF 393 renal; assay: NCI tumour cell line growth inhibition, 48 h
OBSERVED PROPERTY: TGI (µM)
One number for each entry, in µM.

Reference set (3 entries):
- COMPOUND: "Cc1csc2[n+]1C(=O)/C(=C\\c1ccc([N+](=O)[O-])cc1)S2"
  SYSTEM: "RXF 393 renal"
  TGI / µM: 82.6
- COMPOUND: "COc1ccc(C(=O)OC2C(OC3C(O)COC(O[C@H]4C[C@H]5[C@@H]6CC=C7C[C@@H](O)CC[C@]7(C)[C@H]6CC[C@]5(C)[C@H]4[C@H](C)C(=O)CCC(C)C)C3OC(N)=O)OCC(O)C2O)cc1 (some centres undefined)"
  SYSTEM: "RXF 393 renal"
  TGI / µM: 0.0509
- COMPOUND: "Cn1c2ccccc2c2c(-c3ccccc3)cc3c(c21)C(=O)C=CC3=O"
  SYSTEM: "RXF 393 renal"
  TGI / µM: 3.83

Here's the next entry for you.
**Query** Endpoint output: TGI of "C#Cc1c(F)ccc2cc(O)cc(-c3ncc4c(N5CC6CCC(C5)N6)nc(OC[C@@]56CCCN5C[C@H](F)C6)nc4c3F)c12" . Value?
**Result** 27.5
